# Test system: MALME-3M melanoma
# assay_explanation: NCI tumour cell line growth inhibition, 48 h; in the data active = GI50 below about 0.43 µM; inactive = the rest
Outcome codes: active, inactive

- structure_string: "O=C(Nc1cccc(Oc2nnc(Cl)c3ccccc23)c1)Nc1ccc(Cl)c(C(F)(F)F)c1"
  test_system: "MALME-3M melanoma"
  category: "inactive"
- structure_string: "COc1cc2nccc(Oc3ccc(NC(=O)C4(C(=O)Nc5ccc(F)cc5)CC4)cc3)c2cc1Oc1ccc(N)cn1"
  test_system: "MALME-3M melanoma"
  category: "inactive"
- structure_string: "CC(=O)OCC(=O)O[C@@H]1C[C@]2(C(C)C)O[C@@]1(C)[C@@H]1CC[C@@H](C)[C@H]1[C@@H]2OC(=O)/C=C/c1ccccc1"
  test_system: "MALME-3M melanoma"
  category: "inactive"
- structure_string: "O=C(CCCN1CCOCC1)Nc1ccc(Cn2nnc3c2C(=O)c2nnn(Cc4ccc(NC(=O)CCCN5CCOCC5)cc4)c2C3=O)cc1"
  test_system: "MALME-3M melanoma"
  category: "inactive"
- structure_string: "CO/N=C(\\C)c1cccc(Nc2cc(-c3ccccc3)nc3c(O)cccc23)c1"
  test_system: "MALME-3M melanoma"
  category: "inactive"
- structure_string: "COC(=O)c1ccc(NC(=O)Nc2ccc3oc(=O)c4ccccc4c3c2)cc1"
  test_system: "MALME-3M melanoma"
  category: "inactive"
- structure_string: "COc1cnc2c(c1)C(=O)c1c-2n(CCCN2CCC(O)CC2)c(=O)c2cc(F)ccc12"
  test_system: "MALME-3M melanoma"
  category: "active"
- structure_string: "Oc1c(CN2CCCC2)cc(COCc2ccc(Br)cc2)c2cccnc12"
  test_system: "MALME-3M melanoma"
  category: "inactive"
- structure_string: "CC1CCN(CCCCCOc2ccc3oc4cc(Cl)ccc4c(=O)c3c2)CC1"
  test_system: "MALME-3M melanoma"
  category: "inactive"
